- ASSAY_SUMMARY: CHI Log D procedure
- Type: physicochemical
- CONDITION_NOTES: pH 7.4
Collected CHI Log D values appear next to each entry.
// keep it numeric: no unit symbol after the value

Solved entries (count: 4):
MOLECULE	QUANTITY_NAME	REPORTED_VALUE
CC(=O)N1CCC[C@]12CC=CCCCC1(CCCC=CCCCOC(=O)N3CC[C@@](C(=O)N[C@@H](Cc4ccsc4)C(=O)N[C@@H](Cc4csc5ccccc45)C(=O)N[C@@H](CO)C(N)=O)(C3)NC(=O)[C@H](CCO)NC(=O)[C@H](Cc3ccccc3)NC(=O)[C@H](C)NC(=O)[C@H](C)NC(=O)[C@H](CN(CC(=O)O)CC(F)(F)F)NC(=O)[C@H](CC(=O)O)NC1=O)NC(=O)[C@H](CC(C)(C)C)NC(=O)[C@H](CC(=O)O)NC2=O (some centres unmarked) [I-959]	CHI Log D	−0.036
CC(=O)N1CCC[C@]12CC=CCCCC1(CCCC=CCCCCCC[C@@](C)(C(=O)N[C@@H](Cc3ccc(C(F)(F)F)cc3)C(=O)N[C@@H](Cc3c[nH]c4ccccc34)C(=O)N[C@@H](CCC(N)=O)C(N)=O)NC(=O)[C@H](C(C)C)NC(=O)[C@H](Cc3ccccc3)NC(=O)[C@H](C)NC(=O)[C@H](C)NC(=O)[C@H](CC(=O)O)NC(=O)[C@H](CC(=O)O)NC1=O)NC(=O)[C@H](C)NC(=O)[C@H](CC(=O)O)NC2=O (some centres unmarked) [I-254]	CHI Log D	2.232
CC(=O)N[C@@H](Cc1ccccc1)C(=O)N[C@@H](CC(=O)O)C(=O)N[C@@H](C)C(=O)N[C@]1(C)CCCCCCC=CCOC(=O)N2CC[C@@](C(=O)N[C@@H](CC3CCCC3)C(=O)N[C@@H](Cc3c[nH]c4ccccc34)C(=O)N[C@@H](CCC(N)=O)C(N)=O)(C2)NC(=O)[C@H](C(C)C)NC(=O)[C@H](Cc2ccccc2)NC(=O)[C@H](C)NC(=O)[C@H](C)NC(=O)[C@H](CC(=O)O)NC(=O)[C@H](CC(=O)O)NC1=O (single isomer, unassigned)	CHI Log D	1.409
CCN(CC(=O)O)C[C@@H]1NC(=O)[C@H](CC(=O)O)NC(=O)C2(CCCC=CCCCOC(=O)N3CC[C@@](C(=O)N[C@@H](Cc4ccsc4)C(=O)N[C@@H](Cc4csc5ccccc45)C(=O)N[C@@H](CCC(N)=O)C(N)=O)(C3)NC(=O)[C@H]([C@@H](C)O)NC(=O)[C@H](Cc3ccccc3)NC(=O)[C@H](C)NC(=O)[C@H](C)NC1=O)CCCC=CC[C@]1(CCCN1C(C)=O)C(=O)N[C@@H](CC(=O)O)C(=O)N[C@@H](CC(C)(C)C)C(=O)N2 (some centres unmarked) [I-969]	CHI Log D	1.851

For the molecule CC(=O)N1CCC[C@]12CC=CCCCC1(CCCC=CCCCCCC[C@@](C)(C(=O)N[C@@H](Cc3ccccc3)C(=O)N[C@@H](Cc3c[nH]c4ccccc34)C(=O)N[C@@H](CCC(N)=O)C(N)=O)NC(=O)[C@H](C(C)C)NC(=O)[C@H](Cc3ccc(C(F)(F)F)cc3)NC(=O)[C@H](C)NC(=O)[C@H](C)NC(=O)[C@H](CC(=O)O)NC(=O)[C@H](CC(=O)O)NC1=O)NC(=O)[C@H](C)NC(=O)[C@H](CC(=O)O)NC2=O (some centres unmarked) [I-242] , give its measured CHI Log D value.
2.098

###

Collected pIC50 values appear next to each entry.
- STUDY_TARGET: beta-catenin/TCF4 engagement (Homo sapiens, UniProt P35222)
- Construct: expressed in transfected cells; host or cells: HEK293
- Sequence (P35222 1-781): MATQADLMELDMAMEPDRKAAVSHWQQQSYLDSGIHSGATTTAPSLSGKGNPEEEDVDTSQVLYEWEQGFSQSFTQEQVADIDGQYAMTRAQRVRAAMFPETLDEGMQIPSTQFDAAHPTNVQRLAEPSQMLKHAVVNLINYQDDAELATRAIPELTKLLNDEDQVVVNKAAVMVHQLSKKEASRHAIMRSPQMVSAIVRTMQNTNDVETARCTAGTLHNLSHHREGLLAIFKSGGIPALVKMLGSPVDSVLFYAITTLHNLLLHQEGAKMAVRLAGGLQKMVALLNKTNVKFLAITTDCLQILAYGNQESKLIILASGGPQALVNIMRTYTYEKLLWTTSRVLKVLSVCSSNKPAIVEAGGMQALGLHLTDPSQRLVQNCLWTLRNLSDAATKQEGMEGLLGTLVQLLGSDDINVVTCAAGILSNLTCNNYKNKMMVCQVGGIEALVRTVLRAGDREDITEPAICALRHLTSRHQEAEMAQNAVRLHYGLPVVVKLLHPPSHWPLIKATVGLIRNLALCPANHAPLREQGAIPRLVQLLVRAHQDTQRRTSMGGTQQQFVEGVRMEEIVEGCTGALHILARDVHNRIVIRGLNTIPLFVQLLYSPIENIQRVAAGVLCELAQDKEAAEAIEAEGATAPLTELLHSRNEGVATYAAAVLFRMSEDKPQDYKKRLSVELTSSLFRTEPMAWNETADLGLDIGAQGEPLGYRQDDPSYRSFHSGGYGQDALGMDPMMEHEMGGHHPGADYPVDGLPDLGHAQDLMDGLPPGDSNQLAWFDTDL
- ASSAY_SUMMARY: Nano-BRET target engagement assay (B-cat-Halo & TCF4-Luc in HEK293 cells)
- Type: cell-based
- CONDITION_NOTES: absolute IC50; read-out: NanoBRET Abs IC50
pIC50 is defined as minus the log10 of a concentration measured in mol/L.

Solved entries (count: 4):
COMPOUND	STUDY_TARGET	pIC50
COCCC(=O)N1CCC[C@]12CC=CCCCC1(CCCC=CCCCCCC[C@@](C)(C(=O)N[C@@H](Cc3ccccc3Cl)C(=O)N[C@@H](Cc3csc4ccccc34)C(=O)N[C@@H](CCC(N)=O)C(N)=O)NC(=O)[C@H]([C@@H](C)O)NC(=O)[C@H](Cc3ccccc3)NC(=O)[C@H](C)NC(=O)[C@H](C)NC(=O)[C@H](CC(=O)O)NC(=O)[C@H](CC(=O)O)NC1=O)NC(=O)[C@H](CC(C)(C)C)NC(=O)[C@H](CC(=O)O)NC2=O (some centres unmarked)	beta-catenin/TCF4 engagement (Homo sapiens, UniProt P35222)	4.70
CC(=O)N1CCC[C@]12CC=CCCCC1(CCCC=CCCCOC(=O)N3CC[C@@](C(=O)N[C@@H](Cc4ccsc4)C(=O)N[C@@H](Cc4csc5ccccc45)C(=O)N[C@@H](CCC(N)=O)C(N)=O)(C3)NC(=O)[C@H](CC(N)=O)NC(=O)[C@H](Cc3ccccc3)NC(=O)[C@H](C)NC(=O)[C@H](C)NC(=O)[C@H](CCC(N)=O)NC(=O)[C@H](CC(=O)O)NC1=O)NC(=O)[C@H](CC(C)(C)C)NC(=O)[C@H](CC(=O)O)NC2=O (some centres unmarked)	beta-catenin/TCF4 engagement (Homo sapiens, UniProt P35222)	4.76
CC(=O)N1CCC[C@]12CC=CCCCC1(CCCC=CCCCOC(=O)N3CC[C@@](C(=O)N[C@@H](Cc4ccsc4)C(=O)N[C@@H](Cc4csc5ccccc45)C(=O)N[C@@H](CCC(N)=O)C(N)=O)(C3)NC(=O)[C@H](CC(N)=O)NC(=O)[C@H](Cc3ccccc3)NC(=O)[C@H](C)NC(=O)[C@H](C)NC(=O)[C@H](Cc3c(F)c(F)c(F)c(F)c3F)NC(=O)[C@H](CC(=O)O)NC1=O)NC(=O)[C@H](CC(C)(C)C)NC(=O)[C@H](CC(=O)O)NC2=O (some centres unmarked)	beta-catenin/TCF4 engagement (Homo sapiens, UniProt P35222)	4.46
COCCN(CCOC)C(=O)CC[C@@H]1NC(=O)[C@H](Cc2cccc(C(=O)O)c2)NC(=O)[C@H](CC(=O)O)NC(=O)C2(CCCC=CCCCOC(=O)N3CC[C@@](C(=O)N[C@@H](Cc4ccccc4C(F)(F)F)C(=O)N[C@@H](Cc4csc5ccccc45)C(=O)N[C@@H](C)C(N)=O)(C3)NC(=O)[C@H](CC(C)C)NC(=O)[C@H](Cc3ccccc3)NC(=O)[C@H](C)NC1=O)CCCC=CC[C@]1(CCCN1C(C)=O)C(=O)N[C@@H](CC(=O)O)C(=O)N[C@@H](CC(C)(C)C)C(=O)N2 (some centres unmarked)	beta-catenin/TCF4 engagement (Homo sapiens, UniProt P35222)	5.74

As a next step, examine the compound that follows.
For the compound CC(=O)N1CCC[C@]12CC=CCCCC1(CCCC=CCCCOC(=O)N3CC[C@@](C(=O)N[C@@H](Cc4ccsc4)C(=O)N[C@@H](Cc4csc5ccccc45)C(=O)N[C@@H](CCC(N)=O)C(N)=O)(C3)NC(=O)[C@H](CC(C)C)NC(=O)[C@H](Cc3ccccc3)NC(=O)[C@H](C)NC(=O)[C@H](C)NC(=O)[C@H](CC(=O)O)NC(=O)[C@H](CC(=O)O)NC1=O)NC(=O)[C@H](CC1CCCCC1)NC(=O)[C@H](CC(=O)O)NC2=O (some centres unmarked) , give its measured pIC50 value.
4.89
